- ASSAY EXPLANATION: chemical genetic growth profiling, strain panel (AID 1159580);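 also: tested at 20 µM; growth read once vehicle control cultures reached saturation at 30 °C; 1 = growth at the plate median or of vehicle wells; lower values mean less growth of the strain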
- ASSAY CONTEXT: S. cerevisiae deletion strains, growth OD, locus YPR119W, strain clb2
Screen size: about 5,500 compounds; about 2,000 (36%) were called active. Roughly 18% stayed inconclusive and do not appear here. Rule as the data show it: active = normalized growth mostly below about 0.91 (no sharp cut-off); inconclusive = no clear call, values can overlap the other calls; inactive = mostly above about 0.92. This is one part of the list.
Thanks in advance; please answer with one of these: yes (1) (active), no (0) (inactive)

QUERY: What was the test verdict on CC12CCC(=O)C=C1CCC1C2[C@@H](O)CC2(C)C1CC[C@]2(O)C(=O)COP(=O)(O)O (stereo partly specified) ?
RESULT: no (0)

QUERY: Likewise for CCC(C)[C@H]1O[C@]2(C=C[C@@H]1C)C[C@@H]1C[C@@H](C/C=C(\C)[C@@H](OC3C[C@H](OC)C(O[C@H]4C[C@H](OC)[C@@H](O)[C@H](C)O4)[C@H](C)O3)[C@@H](C)/C=C/C=C3\CO[C@@H]4[C@H](O)C(C)=C[C@@H](C(=O)O1)[C@]34O)O2 (stereo partly specified) ?
RESULT: no (0)

QUERY: Likewise for "O=C(O)C1=CCCNC1" ?
RESULT: no (0)

QUERY: Likewise for CC(=O)O[C@@H]1CC2C(C)(C)[C@H](O)C=C[C@]2(C)C2CC[C@]3(C)C(=CC(=O)O[C@H]3c3ccoc3)[C@@]21C (stereo partly specified) ?
RESULT: no (0)

QUERY: Likewise for CC(=O)O[C@@H]1C=C[C@@]2(C)C(C[C@@H](OC(C)=O)[C@@]3(C)C4=CC(=O)O[C@@H](c5ccoc5)[C@]4(C)CCC23)C1(C)C (stereo partly specified) ?
RESULT: yes (1)

QUERY: Likewise for CC(=O)O[C@@H]1CC[C@@]2(C)C(C[C@@H](OC(C)=O)[C@@]3(C)C4=CC(=O)O[C@@H](c5ccoc5)[C@]4(C)CCC23)C1(C)C (stereo partly specified) ?
RESULT: no (0)

###

- ASSAY EXPLANATION: chemical genetic growth profiling, strain panel (AID 1159580);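 also: tested at 20 µM; growth read once vehicle control cultures reached saturation at 30 °C; 1 = growth at the plate median or of vehicle wells; lower values mean less growth of the strain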
- ASSAY CONTEXT: S. cerevisiae deletion strains, growth OD, locus YKL203C, strain TOR2, hits give low values
Among all 5,500 compounds or so, about 2,000 (36%) were called active. Another 18% or so got no clear call; they are omitted. The list shows a part of the results.
The label 1 is reserved for normalized growth strictly under 0.8; 0 covers values equal to or above it.

QUERY: # check: normalized growth < 0.8 for "Cc1c(C)c(C)c(C(=O)c2ccc(N=Cc3cc(Cl)cc(Cl)c3O)cc2)c(C)c1C"
RESULT: 1

QUERY: Likewise for "Brc1ccc(-c2csc(-c3ccncc3)n2)cc1" ?
RESULT: 1

QUERY: Likewise for "COC(=O)C1=C(Nc2ccccc2NS(=O)(=O)c2ccc(C(F)(F)F)cc2Cl)CSC1" ?
RESULT: 0

QUERY: Likewise for "CSc1sc(C(=O)Sc2ccccc2)cc1S(=O)(=O)C(C)C" ?
RESULT: 0

QUERY: Likewise for "COC(=O)c1sccc1NS(=O)(=O)c1cc(Cl)cc(Cl)c1" ?
RESULT: 0

###

- ASSAY EXPLANATION: chemical genetic growth profiling, strain panel (AID 1159580);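 also: tested at 20 µM; growth read once vehicle control cultures reached saturation at 30 °C; 1 = growth at the plate median or of vehicle wells; lower values mean less growth of the strain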
- ASSAY CONTEXT: S. cerevisiae deletion strains, growth OD, locus YLR085C, strain ARP6, hits give low values
Among all 5,500 compounds or so, about 2,000 (36%) were called active. Not shown: some 18% with an inconclusive outcome. The list shows a part of the results.
MEASUREMENT NAME: normalized growth

QUERY: Can you look up the measured normalized growth of "COCc1cc(=O)n2[nH]c(C(C)(C)C)cc2n1" for me?
RESULT: 0.959 (inactive)

QUERY: Likewise for "N/C(Cc1cccc2ccccc12)=N/O" ?
RESULT: 1.14 (inactive)

QUERY: Likewise for "Cc1cccc(Cn2nc(C(C)(C)C)cc2C(=O)O)c1" ?
RESULT: 1.02 (inactive)

QUERY: Likewise for "Cc1onc(-c2c(Cl)cccc2Cl)c1NC(=O)O/N=C\c1ccc(N(C)C)cc1" ?
RESULT: 0.0906 (active)

QUERY: Likewise for "CCOC(=O)c1ccc(NC(=O)CCC(=O)O)cc1" ?
RESULT: 1.02 (inactive)

QUERY: Likewise for "C(=C(c1ccccc1)c1ccccc1)N1CCC1" ?
RESULT: 0.998 (inactive)

QUERY: Likewise for CSc1sc(C#N)c2c1C(O)CCC2 (stereo unspecified) ?
RESULT: 1.03 (inactive)

QUERY: Likewise for "Cc1cc(=O)n(-c2ccc([N+](=O)[O-])cc2)[nH]1" ?
RESULT: 0.592 (active)

QUERY: Likewise for "O=S(=O)(Oc1ccc(OCc2ccccc2)cc1)c1cc(Cl)cc(Cl)c1" ?
RESULT: 0.943 (inactive)

QUERY: Likewise for FC(F)(F)c1cc(-c2noc(C3CCc4ccccc4O3)n2)cc(C(F)(F)F)c1 (stereo unspecified) ?
RESULT: 0.98 (inactive)

QUERY: Likewise for "Cn1c(CSc2ccccc2)n[nH]c1=S" ?
RESULT: 1.09 (inactive)

QUERY: Likewise for O=C(O)CSC1CCS(=O)(=O)C1 (stereo unspecified) ?
RESULT: 1 (inactive)

QUERY: Likewise for "Cn1ncc(C(=O)O/N=C(/N)c2cc(C(F)(F)F)cc(C(F)(F)F)c2)c1-n1cccc1" ?
RESULT: 0.984 (inactive)

QUERY: Likewise for "N/C(=N/OC(=O)c1ccccc1)c1ccc(-c2csnn2)cc1" ?
RESULT: 1.01 (inactive)

QUERY: Likewise for "CC(C)(C)c1cc(C(=O)NNC(=O)c2cc(C(F)(F)F)cc(C(F)(F)F)c2)n(Cc2ccc(F)cc2)n1" ?
RESULT: 0.999 (inactive)

QUERY: Likewise for "CCOC(=O)c1ccc(NC(N)=S)cc1" ?
RESULT: 0.974 (inactive)

QUERY: Likewise for "OCc1ccccc1-c1ccccc1" ?
RESULT: 1.03 (inactive)

QUERY: Likewise for "NC(N)=NC(N)=Nc1ccc2c(c1)OCCO2" ?
RESULT: 0.963 (inactive)

QUERY: Likewise for "O=C(O)CCCNCc1cccc2ccccc12" ?
RESULT: 1.01 (inactive)

QUERY: Likewise for "O=C1c2ccccc2C(=O)N1CN(CCSc1ccccc1)CN1C(=O)c2ccccc2C1=O" ?
RESULT: 0.957 (inactive)

QUERY: Likewise for "O=[N+]([O-])c1ccc(N2CCOCC2)cc1" ?
RESULT: 0.98 (inactive)

QUERY: Likewise for "Cc1cccc(C)c1N=C1SCCS1" ?
RESULT: 0.99 (inactive)

QUERY: Likewise for O=C(O)C1C2CCC1C(O)C2 (stereo unspecified) ?
RESULT: 1.03 (inactive)

QUERY: Likewise for N#CC(c1ccccc1)N1CCCCC1 (stereo unspecified) ?
RESULT: 1.02 (inactive)

QUERY: Likewise for "NC(=S)CSc1ccccc1" ?
RESULT: 0.591 (active)

QUERY: Likewise for "CCCc1cc(=O)oc2cc(OCC(=O)OCC)ccc12" ?
RESULT: 0.913 (inactive)

###

- ASSAY EXPLANATION: chemical genetic growth profiling, strain panel (AID 1159580);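 also: tested at 20 µM; growth read once vehicle control cultures reached saturation at 30 °C; 1 = growth at the plate median or of vehicle wells; lower values mean less growth of the strain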
- ASSAY CONTEXT: S. cerevisiae deletion strains, growth OD, locus YLL001W, strain dnm1, hits give low values
In all, about 5,500 compounds went through this assay and about 2,000 (36%) were called active. Not shown: some 18% with an inconclusive outcome. The list shows a part of the results.
MEASUREMENT NAME: normalized growth
A bare number is all that is needed in reply.

QUERY: Can you look up the measured normalized growth of "CCN(CC)CCOC(=O)C1(C2CCCCC2)CCCCC1" for me?
RESULT: 0.998

QUERY: Likewise for "CC(C)=CCc1c2c(c3occ(-c4ccc(O)c(O)c4)c(=O)c3c1O)C=CC(C)(C)O2" ?
RESULT: 0.959

QUERY: Likewise for CC(C)=CCCC(C)[C@@H]1CC[C@]2(C)C3=C(CC[C@@]12C)C1(C)CC[C@H](O)C(C)(C)C1CC3 (stereo not given in full) ?
RESULT: 1.07

QUERY: Likewise for CC(C)NCC(O)COc1ccc(COCCOC(C)C)cc1 (stereo not given) ?
RESULT: 0.983

QUERY: Likewise for "COC(=O)/C(=C1\OC(=O)C(c2ccccc2)=C1O)c1ccccc1" ?
RESULT: 0.97

QUERY: Likewise for "O=C(O)c1cc(O)c2c(c1)[C@@H]([C@H]1c3cc(C(=O)O)cc(O)c3C(=O)c3c(O[C@H]4O[C@H](CO)[C@@H](O)[C@H](O)[C@H]4O)cccc31)c1cccc(O[C@H]3O[C@H](CO)[C@@H](O)[C@H](O)[C@H]3O)c1C2=O" ?
RESULT: 1.02

QUERY: Likewise for "CNCCCC12CCC(c3ccccc31)c1ccccc12" ?
RESULT: 1.01

QUERY: Likewise for "O=C(O)C1=CCCNC1" ?
RESULT: 0.993

QUERY: Likewise for "CC(C)=CCc1c2c(c3occ(-c4ccc(O)cc4)c(=O)c3c1O)C=CC(C)(C)O2" ?
RESULT: 0.937

QUERY: Likewise for CC(C)CCCC(C)C1CCC2C3CC(=O)[C@H]4C[C@@H](O)CC[C@]4(C)C3CC[C@]12C (stereo not given in full) ?
RESULT: 0.982

QUERY: Likewise for "CN(C)[C@@H]1C(=O)C(C(N)=O)=C(O)[C@@]2(O)C(=O)C3=C(O)c4c(O)ccc(Cl)c4[C@@](C)(O)[C@H]3C[C@@H]12" ?
RESULT: 0.976

QUERY: Likewise for "COC(=O)c1c(OC)cc2c(c1C)Oc1c(Cl)c(O)c(Cl)c(C)c1C(=O)O2" ?
RESULT: 0.979

QUERY: Likewise for CC(C)CCCC(C)C1CCC2C3C[C@@H](O)[C@@]4(O)C[C@@H](O)CC[C@]4(C)C3CC[C@]12C (stereo not given in full) ?
RESULT: 0.949

QUERY: Likewise for CC(C)(C)NCC(O)c1ccc(O)c(CO)c1 (stereo not given) ?
RESULT: 1.02

QUERY: Likewise for CC(C)CCCC(C)[C@H]1CCC2C3CC=C4CC(=O)CC[C@]4(C)C3CC[C@@]21C (stereo not given in full) ?
RESULT: 0.988

QUERY: Likewise for COC1CC2CCC(C)C(O)(O2)C(=O)C(=O)N2CCCCC2C(=O)OC(C(C)CC2CCC(O)C(OC)C2)CC(=O)C(C)/C=C(\C)C(O)C(OC)C(=O)C(C)CC(C)/C=C/C=C/C=C/1C (stereo not given) ?
RESULT: 0.0594

QUERY: Likewise for "CN(C)[C@@H]1C(=O)C(C(=O)NCN2CCCC2)=C(O)[C@@]2(O)C(=O)C3=C(O)c4c(O)cccc4[C@@](C)(O)[C@H]3C[C@@H]12" ?
RESULT: 1.02

QUERY: Likewise for CC(CCc1ccccc1)NCC(O)c1ccc(O)c(C(N)=O)c1 (stereo not given) ?
RESULT: 1

QUERY: Likewise for CC(Cc1cccc(C(F)(F)F)c1)NCCOC(=O)c1ccccc1 (stereo not given) ?
RESULT: 0.935

QUERY: Likewise for CCN1CCN(C(=O)NC(C(=O)N[C@@H]2C(=O)N3[C@@H]2SC(C)(C)[C@@H]3C(=O)O)c2ccccc2)C(=O)C1=O (stereo not given in full) ?
RESULT: 0.979
